# assay_protocol: Hematotoxicity against RBC assessed as formation of methemoglobin at 20 ug/ml relative to control
# Type: cell-based
# assay_conditions: erythrocyte
Please assign Not satisfied whenever Methemoglobin formation is at or above 4%, and Satisfied whenever it is below.

Observe how each entry below is paired with its result.
compound	assigned_class
COc1cc(NC(C)CCCNC(=O)N[C@@H](CCCCN)C(=O)NCCCC(C)Nc2cc(OC)cc3ccc(C(C)(C)C)nc23)c2nc(C(C)(C)C)ccc2c1.Cl (stereo partly drawn)	Satisfied
COc1cc(NC(C)CCCNC(=O)CC[C@H](N)C(=O)NCCCC(C)Nc2cc(OC)cc3cccnc23)c2ncccc2c1.Cl (stereo partly drawn)	Not satisfied
COc1cc(NC(C)CCCNSC(=O)NCCCC(C)Nc2cc(OC)cc3cccnc23)c2ncccc2c1.Cl.Cl (stereo not drawn)	Not satisfied
COc1cc(NC(C)CCCNC(=O)NC(CCCNC(=N)N)C(=O)NCCCC(C)Nc2cc(OC)cc3cccnc23)c2ncccc2c1.Cl (single isomer, unassigned; 39)	Not satisfied
COc1cc(NC(C)CCCNC(=O)NC(CCCCN)C(=O)NCCCC(C)Nc2cc(OC)cc3cccnc23)c2ncccc2c1.Cl (single isomer, unassigned)	Satisfied

Continue with the compound presented below.
Regarding COc1cc(NC(C)CCCNC(=O)C[C@H](N)C(=O)NCCCC(C)Nc2cc(OC)cc3cccnc23)c2ncccc2c1.Cl (stereo partly drawn) , kindly confirm whether its Methemoglobin formation is beneath 4%.
Not satisfied

---

# Test system: Leishmania donovani
# assay_protocol: Antileishmanial activity against promastigotes of Leishmania donovani by alamar blue assay
# Type: functional, organism-based
# assay_conditions: Leishmania donovani; read-out: IC50
Reported IC50 values are given for each entry in this list.
State the answer as a number, implicitly in µg/mL.

Reference set, count: 2
> print(dat)
                                   compound               system  units.label  measured
1  COc1cc(NC(C)CCCNC(=O)NC(CCCN)C(=O)NCCCC(C)Nc2cc(OC)cc3cccnc23)c2ncccc2c1.Cl (single isomer, unassigned; 37)  Leishmania donovani        µg/mL        14
2  COc1cc(NC(C)CCCNC(=O)CC[C@H](N)C(=O)NCCCC(C)Nc2cc(OC)cc3cccnc23)c2ncccc2c1.Cl (stereo partly drawn)  Leishmania donovani        µg/mL        16

Next, consider the following compound.
Fill in reported IC50 for this entry: COc1cc(NC(C)CCCNC(=O)C[C@H](N)C(=O)NCCCC(C)Nc2cc(OC)cc3ccc(C(C)(C)C)nc23)c2nc(C(C)(C)C)ccc2c1.Cl (stereo partly drawn)
15

---

# System: Mycobacterium intracellulare
# assay_protocol: Antibacterial activity against Mycobacterium intracellular ATCC 23068 at 20 ug/ml by CLSI method
# Format: functional, organism-based
Calls of active or inactive are those of the source. The calls are words filed in the database; no cut-off is given here.
result_type: MIC

molecule	result_type	measured
COc1cc(NC(C)CCCNC(=O)NC(CCCN)C(=O)NCCCC(C)Nc2cc(OC)cc3cccnc23)c2ncccc2c1 (single isomer, unassigned; 40)	MIC	inactive
COc1cc(NC(C)CCCNC(=O)N[C@H](CCCCN)C(=O)NCCCC(C)Nc2cc(OC)cc3cccnc23)c2ncccc2c1.Cl (some centres not stated)	MIC	inactive
COc1cc(NC(C)CCCNCC(=O)NCCCC(C)Nc2cc(OC)cc3ccc(C(C)(C)C)nc23)c2nc(C(C)(C)C)ccc2c1.Cl.Cl (configuration not stated)	MIC	inactive
CCCCCOc1c(OC)cc(NC(C)CCCNC(=O)NCCCC(C)Nc2cc(OC)c(OCCCCC)c3c(CC)ccnc23)c2nccc(CC)c12.Cl.Cl (configuration not stated)	MIC	inactive

Fill in reported MIC for this entry: COc1cc(NC(C)CCCNC(=O)N[C@@H](CCCCN)C(=O)NCCCC(C)Nc2cc(OC)cc3ccc(C(C)(C)C)nc23)c2nc(C(C)(C)C)ccc2c1.Cl (some centres not stated)
inactive

Fill in reported MIC for this entry: COc1cc(NC(C)CCCNC(=O)c2ccncc2C(=O)NCCCC(C)Nc2cc(OC)cc3ccc(C(C)(C)C)nc23)c2nc(C(C)(C)C)ccc2c1.Cl (configuration not stated)
inactive

Fill in reported MIC for this entry: COc1cc(NC(C)CCCNC(=O)C[C@H](N)C(=O)NCCCC(C)Nc2cc(OC)cc3ccc(C(C)(C)C)nc23)c2nc(C(C)(C)C)ccc2c1.Cl (some centres not stated)
inactive
